- PROCEDURE DETAILS: Drug uptake in wild-type mouse blood at 100 mg/kg, po
- Type: ADME, organism-based
- STUDY CONDITIONS: in vivo, read-out: Drug uptake
MEASURE: concentration
Answer format: number, then unit.

So what does the record say about concentration for `O=C(O)CCc1cc2cc(-c3cc(OC(F)(F)F)ccc3F)ccc2o1` ?
45.1 µM

---

- SYSTEM NAME: Free fatty acid receptor 4 (Homo sapiens)
- Sequence (Q5NUL3 whole entry): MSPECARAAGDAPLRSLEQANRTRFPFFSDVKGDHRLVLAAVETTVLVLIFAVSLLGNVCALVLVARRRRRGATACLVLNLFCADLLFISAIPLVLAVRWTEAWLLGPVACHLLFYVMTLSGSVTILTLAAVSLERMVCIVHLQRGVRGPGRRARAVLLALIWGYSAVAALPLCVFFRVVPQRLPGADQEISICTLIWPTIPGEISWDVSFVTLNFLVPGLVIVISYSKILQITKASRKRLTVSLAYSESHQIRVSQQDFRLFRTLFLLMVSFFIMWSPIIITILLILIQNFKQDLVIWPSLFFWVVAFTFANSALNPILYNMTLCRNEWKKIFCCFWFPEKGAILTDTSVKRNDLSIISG
- PROCEDURE DETAILS: Agonist activity at human GPR120 expressed in CHOK1 cells measured after 60 mins by IP1-HTRF assay
MEASURE: EC50

Some entries whose results are on file:
{"SMILES REPRESENTATION": "Fc1ccc(OC(F)(F)F)cc1-c1ccc2oc(CCc3nn[nH]n3)cc2c1", "EC50": "> 9950 nM"}
{"SMILES REPRESENTATION": "O=C(O)CCc1cc2cc(-c3cc(OC(F)(F)F)ccc3Cl)ccc2o1", "EC50": "102 nM"}
{"SMILES REPRESENTATION": "O=C(O)CCc1cc2cc(-c3cc(C(=O)C4CC4)ccc3F)ccc2o1", "EC50": "97 nM"}
{"SMILES REPRESENTATION": "O=C(O)CCCOc1c(F)cc(-c2cc(OC(F)(F)F)ccc2F)cc1F", "EC50": "20 nM"}

# input for lookup
So what does the record say about EC50 for `Cc1cc(-c2cc(OC(F)(F)F)ccc2Cl)cc(C)c1OCCCC(=O)O` ?
94 nM
